Assay system: PHD1 (EGLN2) (Homo sapiens (Human), UniProt Q96KS0)
Sequence (Q96KS0 whole entry): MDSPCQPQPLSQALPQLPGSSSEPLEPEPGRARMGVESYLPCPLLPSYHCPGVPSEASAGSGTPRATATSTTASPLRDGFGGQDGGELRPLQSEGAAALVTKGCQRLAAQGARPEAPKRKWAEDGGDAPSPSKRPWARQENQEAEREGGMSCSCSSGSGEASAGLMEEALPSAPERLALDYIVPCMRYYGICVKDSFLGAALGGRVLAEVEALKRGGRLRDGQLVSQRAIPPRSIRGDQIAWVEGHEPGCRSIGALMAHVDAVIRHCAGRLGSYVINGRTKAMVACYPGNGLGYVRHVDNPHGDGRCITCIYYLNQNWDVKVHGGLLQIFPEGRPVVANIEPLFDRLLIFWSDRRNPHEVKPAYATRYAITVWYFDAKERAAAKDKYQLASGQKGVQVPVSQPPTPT
Measurement description: HIF-PH assay (14CO2 capture), PHD1 enzyme inhibition
Format: biochemical
Experimental conditions: Table 1; ratio of the IC50 of the compound for each enzyme
Attribute measured: PHD2/PHD1

a = O=C(O)CCCNC(=O)c1ncc2cc(-c3ccc(F)cc3)ccc2c1O [Compound 148]
b = O=C(O)CCCNC(=O)c1ncc2cc(Oc3ccccc3)ccc2c1O [Compound 4]
c = CC(C)(CNC(=O)c1nc(C#N)c2cc(Oc3c(F)cccc3F)ccc2c1O)C(=O)O [Compound 22]
Problem: Rank the listed compounds, smallest PHD2/PHD1 first and largest last. Write out the labels following the order that was asked for.
Result: b, a, c

P = N#Cc1nc(C(=O)NCC(C(=O)O)c2ccc(F)cc2)c(O)c2ccc(Oc3ccccc3)cc12 (centres unmarked) [Compound 181]
Q = CC(C)(CNC(=O)c1nc(C#N)c2cc(S(=O)(=O)C3CCCCC3)ccc2c1O)C(=O)O [Compound 160]
R = N#Cc1nc(C(=O)NCC(O)C(=O)O)c(O)c2ccc(Oc3ccccc3)cc12 (centres unmarked) [Compound 76]
Problem: Could you please order the items by PHD2/PHD1, going from the lowest number to the highest? Write out the labels following the order that was asked for.
Result: P, Q, R
